# credit: the supplement of paper PMC10567573

The variants listed here are annotated with their protein stability index.
B1: SLC25A39 (parent)
chain: LTSDLYAPMVAGALARLGTVTVIS

variants of: B1; experiment: protein stability index of a GFP-peptide fusion (GPS, HEK-293T) (PSI 1-6); higher = more stable; conditions: c terminus: a fixed tail appended;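 further: lentivirally expressed fusions sorted by FACS into six bins by GFP to DsRed ratio, PSI derived from sequencing read proportions per bin multiplied by bin number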
Please reply with the value in numeric form only.

mutationlabel=L17G numericreadout=3.15

Could you share which protein stability index value was measured for `Y6G` ?
1.13

Could you share which protein stability index value was measured for `V10H` ?
2.45

Could you share which protein stability index value was measured for `L17F` ?
2.95
